Target: UniProt P08581
Sequence (P08581 whole entry): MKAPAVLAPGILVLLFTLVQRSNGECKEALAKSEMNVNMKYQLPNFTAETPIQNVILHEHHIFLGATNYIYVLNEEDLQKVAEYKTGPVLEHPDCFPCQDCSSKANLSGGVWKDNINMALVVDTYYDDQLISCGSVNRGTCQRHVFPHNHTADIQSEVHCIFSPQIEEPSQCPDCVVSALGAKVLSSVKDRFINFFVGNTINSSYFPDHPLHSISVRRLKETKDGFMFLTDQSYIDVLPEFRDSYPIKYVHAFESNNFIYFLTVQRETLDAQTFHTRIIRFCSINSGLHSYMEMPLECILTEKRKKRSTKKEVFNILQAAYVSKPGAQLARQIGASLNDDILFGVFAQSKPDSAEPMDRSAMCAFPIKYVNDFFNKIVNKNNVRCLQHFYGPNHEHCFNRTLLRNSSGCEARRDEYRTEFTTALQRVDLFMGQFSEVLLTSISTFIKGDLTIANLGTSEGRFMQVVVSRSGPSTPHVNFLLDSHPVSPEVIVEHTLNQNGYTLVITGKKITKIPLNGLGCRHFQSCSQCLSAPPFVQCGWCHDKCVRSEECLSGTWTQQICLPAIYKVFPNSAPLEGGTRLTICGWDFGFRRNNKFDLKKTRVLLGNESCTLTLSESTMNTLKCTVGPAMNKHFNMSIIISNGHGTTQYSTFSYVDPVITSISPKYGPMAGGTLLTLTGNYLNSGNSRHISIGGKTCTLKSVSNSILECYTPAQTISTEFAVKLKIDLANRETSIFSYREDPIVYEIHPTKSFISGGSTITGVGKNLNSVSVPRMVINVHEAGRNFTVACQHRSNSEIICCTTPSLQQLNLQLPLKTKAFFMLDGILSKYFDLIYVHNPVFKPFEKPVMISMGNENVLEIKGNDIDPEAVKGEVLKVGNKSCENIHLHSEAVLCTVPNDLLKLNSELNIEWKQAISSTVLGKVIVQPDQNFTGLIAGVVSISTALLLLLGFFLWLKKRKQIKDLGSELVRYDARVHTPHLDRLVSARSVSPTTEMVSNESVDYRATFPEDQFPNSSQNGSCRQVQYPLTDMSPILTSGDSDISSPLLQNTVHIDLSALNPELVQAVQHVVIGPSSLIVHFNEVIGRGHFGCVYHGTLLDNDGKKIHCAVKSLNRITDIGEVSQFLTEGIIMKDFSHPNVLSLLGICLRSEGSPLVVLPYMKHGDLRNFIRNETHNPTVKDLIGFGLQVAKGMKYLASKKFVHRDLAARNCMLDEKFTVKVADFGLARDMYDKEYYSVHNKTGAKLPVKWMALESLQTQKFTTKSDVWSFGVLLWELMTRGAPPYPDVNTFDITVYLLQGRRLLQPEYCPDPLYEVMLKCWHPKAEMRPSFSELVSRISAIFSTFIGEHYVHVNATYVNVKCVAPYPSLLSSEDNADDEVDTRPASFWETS

# COMPOUND, TARGET UNDER TEST, IC50 (nM)
records = [
    ("Cc1cc2ncccc2cc1C(C)n1cnc2ncc(-c3cnc4ccccc4c3)nc21 (stereo unspecified)", "UniProt P08581", 38.1),
    ("CC(c1cc2cccnc2cc1F)n1cnc2ncc(-c3cnn(CCO)c3)nc21 (stereo unspecified)", "UniProt P08581", 4.5),
    ("CCC(c1ccc2ncccc2c1F)n1cnc2ncc(-c3ccc(C(N)=O)c(F)c3)nc21 (stereo unspecified)", "UniProt P08581", 1.6),
    ("CC(c1c(F)cc2ncccc2c1F)n1cnc2ncc(-c3cnn(C)c3)nc21 (stereo unspecified)", "UniProt P08581", 1),
    ("CN(C)c1cccc(-c2cnc3ncn(Cc4ccc5ncccc5c4)c3n2)c1", "UniProt P08581", 40),
    ("CNC(=O)c1ccc(-c2cnc3ncn(C(C)c4cc5cccnc5cc4C)c3n2)cc1F (stereo unspecified)", "UniProt P08581", 31),
]
